# target or system: TcMevK (Tribolium castaneum, UniProt D2A4R0, K11A)
# Construct: N-terminal His6 tag (pET28a-derived vector), expressed in E. coli BL21(DE3), Ni-chelating and Superdex 200 purified
# protocol description: intrinsic fluorescence quenching, excitation […] nm
# condition label: read-out: KD Value for Mev
property: Kd (µM)
Give bare numbers, in µM.

Exercise: Bench note: what Kd did C[C@@](O)(CCO)CC(=O)O [mevalonate] show?
Solution: 75.8

----------
# target or system: TcMevK (Tribolium castaneum, UniProt D2A4R0, V264A)
# Construct: N-terminal His6 tag (pET28a-derived vector), expressed in E. coli BL21(DE3), Ni-chelating and Superdex 200 purified
# Sequence (D2A4R0 1-396 V264A): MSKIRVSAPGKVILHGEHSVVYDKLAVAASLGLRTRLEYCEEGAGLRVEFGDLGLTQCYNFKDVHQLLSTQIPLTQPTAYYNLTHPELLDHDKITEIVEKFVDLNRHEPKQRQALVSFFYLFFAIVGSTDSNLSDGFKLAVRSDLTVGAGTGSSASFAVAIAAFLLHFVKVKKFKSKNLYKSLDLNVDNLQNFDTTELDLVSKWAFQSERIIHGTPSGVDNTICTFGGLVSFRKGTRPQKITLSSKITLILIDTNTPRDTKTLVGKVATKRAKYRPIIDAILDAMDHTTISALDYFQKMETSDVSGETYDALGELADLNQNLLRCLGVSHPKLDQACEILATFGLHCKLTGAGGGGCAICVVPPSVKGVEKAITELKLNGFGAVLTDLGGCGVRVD
# protocol description: intrinsic fluorescence quenching, excitation […] nm
# condition label: read-out: KD Value for Mev
property: pKd
Answers are plain numbers, as −log10 of the molar value.

Exercise: Need pKd of C[C@@](O)(CCO)CC(=O)O [mevalonate] , thanks.
Solution: 4.24
